// values below are reported Emax at 30 µM
STUDY TARGET: human TRPA1 (Homo sapiens, UniProt O75762)
Construct: Life Technologies (cells); host or cells: Flp-In T-REx HEK-293
Sequence (O75762 whole entry): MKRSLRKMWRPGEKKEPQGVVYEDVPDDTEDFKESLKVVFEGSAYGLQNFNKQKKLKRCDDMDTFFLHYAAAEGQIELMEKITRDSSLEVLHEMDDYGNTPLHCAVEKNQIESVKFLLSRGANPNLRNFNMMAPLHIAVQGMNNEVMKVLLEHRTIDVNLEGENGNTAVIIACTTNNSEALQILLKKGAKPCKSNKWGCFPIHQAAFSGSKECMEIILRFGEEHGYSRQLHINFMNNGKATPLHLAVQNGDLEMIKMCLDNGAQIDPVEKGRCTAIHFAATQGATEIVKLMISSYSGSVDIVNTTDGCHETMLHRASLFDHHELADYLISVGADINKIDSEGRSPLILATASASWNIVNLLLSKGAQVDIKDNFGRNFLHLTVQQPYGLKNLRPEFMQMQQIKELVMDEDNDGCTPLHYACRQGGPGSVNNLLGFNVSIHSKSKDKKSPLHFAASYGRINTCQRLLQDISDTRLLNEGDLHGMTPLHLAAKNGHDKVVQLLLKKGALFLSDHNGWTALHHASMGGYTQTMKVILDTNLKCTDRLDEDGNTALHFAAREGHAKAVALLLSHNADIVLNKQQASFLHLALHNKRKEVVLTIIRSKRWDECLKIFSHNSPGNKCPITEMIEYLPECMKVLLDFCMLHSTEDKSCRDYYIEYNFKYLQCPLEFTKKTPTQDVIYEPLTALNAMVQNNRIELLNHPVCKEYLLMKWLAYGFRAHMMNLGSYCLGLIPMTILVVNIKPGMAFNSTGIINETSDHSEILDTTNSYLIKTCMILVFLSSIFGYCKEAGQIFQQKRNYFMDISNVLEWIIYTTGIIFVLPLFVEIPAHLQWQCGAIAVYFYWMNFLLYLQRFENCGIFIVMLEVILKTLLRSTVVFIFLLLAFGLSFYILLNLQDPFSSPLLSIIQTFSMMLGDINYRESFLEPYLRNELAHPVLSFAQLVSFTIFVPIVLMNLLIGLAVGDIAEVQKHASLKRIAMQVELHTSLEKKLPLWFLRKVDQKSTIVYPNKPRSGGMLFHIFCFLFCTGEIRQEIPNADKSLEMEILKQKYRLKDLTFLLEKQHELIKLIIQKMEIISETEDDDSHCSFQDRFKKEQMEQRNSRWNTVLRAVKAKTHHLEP
ASSAY SUMMARY: Calcium 5 dye [Ca]i assay in HEK-293 Flp-In T-REx cells expressing TRPA1 (agonist response)
Format: cell-based
CONDITION INFO: HEK293, read-out: Emax ± SEM % TRPA1 (30 µM)

COMPOUND: O=C/C=C/c1ccccc1 [Cinnamaldehyde, reference compound]
UOM: %
Emax at 30 µM: 503
--
COMPOUND: CCCCC/C=C\C/C=C\CCCCCCCC(=O)OC(CO)CO
UOM: %
Emax at 30 µM: 10
--
COMPOUND: CCCCC/C=C\C/C=C\C/C=C\CCCCC(=O)O
UOM: %
Emax at 30 µM: 255
--
COMPOUND: CCCCC/C=C\C/C=C\C/C=C\C/C=C\CCCC(=O)NCCO [AEA, anandamide]
UOM: %
Emax at 30 µM: 206
--
COMPOUND: CCCCC/C=C\C/C=C\C/C=C\C/C=C\CCCC(=O)OC(CO)CO
UOM: %
Emax at 30 µM: 109
